- Tested on: MDA-MB-468 breast
- method_notes: NCI-60 one-dose screen, 48 h
- test_context: 10 µM unless noted
Compounds without any hit were thinned out: in the full panel of roughly 83,000, 20% have a hit. Active and inactive are the calls of the source. The calls were made as follows: active = growth percent below 10; inactive = the rest.
Your response should consist of one outcome taken from active, inactive

Enquiry: Please let me know the test result on file for COc1cc(C(=O)NNC(=O)c2ccccc2O)cc(OC)c1OC .
Return: inactive

Enquiry: Please let me know the test result on file for COc1cc(C)cc2oc3oc(=O)c(C(=O)c4cc5cc(Br)ccc5o4)cc3c(=O)c12 .
Return: inactive

Enquiry: Please let me know the test result on file for Nc1c(C(=O)c2ccccc2)nnc2ncnn12 .
Return: inactive

Enquiry: Please let me know the test result on file for CN1CCN(c2ccc(NC(=O)c3cncnc3Nc3ccc4c(ccn4Cc4cccc(F)c4)c3)cc2)CC1 .
Return: inactive

Enquiry: Please let me know the test result on file for CN(C)CCN=c1nc2c(c(N)n1-c1ccccc1)c(=S)n(-c1ccccc1)c(=S)n2-c1ccccc1 .
Return: active

Enquiry: Please let me know the test result on file for COc1ccc(C2c3ccccc3NC(=O)N2C2CCN(C)CC2)c(OC)c1 (centres undefined) .
Return: inactive

Enquiry: Please let me know the test result on file for C=C(C)[C@@H]1CC[C@]2(COCCC#N)CC[C@]3(C)[C@H](CC[C@@H]4[C@@](C)(CCCNCCC#N)[C@H](C(=C)C)CC[C@]43C)[C@@H]12 .
Return: inactive

Enquiry: Please let me know the test result on file for COc1ccc2nc3cc(Cl)ccc3c(NCCCNCCC(C)O)c2c1 (centres undefined) .
Return: active

Enquiry: Please let me know the test result on file for COc1ccc(OC)c(-c2ccc(-c3ccccc3N)c3[nH]c4ccccc4c23)c1 .
Return: inactive

Numbers sourced from PubChem BioAssay (NCI).
